# corrected association response per record follows
Molecular target: T1, human 5T4ECDHis (mature protein of SEQ ID NO: 99) (human, UniProt Q13641 32-355)
T1 construct: ECD of human 5T4 (aa 1-355 of Uniprot Q13641) with C-terminal His tag; residues 1-31 are the signal peptide; also called ECD of human 5T4 with a C-terminal His tag
T1 sequence: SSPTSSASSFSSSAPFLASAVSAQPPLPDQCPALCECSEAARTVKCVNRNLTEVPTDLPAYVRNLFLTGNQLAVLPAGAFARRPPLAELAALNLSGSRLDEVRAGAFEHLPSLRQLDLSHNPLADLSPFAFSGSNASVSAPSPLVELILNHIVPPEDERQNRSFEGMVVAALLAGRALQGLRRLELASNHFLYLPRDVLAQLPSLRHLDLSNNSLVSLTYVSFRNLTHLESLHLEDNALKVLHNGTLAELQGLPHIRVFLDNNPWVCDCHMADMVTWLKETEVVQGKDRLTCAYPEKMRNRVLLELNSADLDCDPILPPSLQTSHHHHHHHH
Assay: BLI cross-block; competitor (immobilised): IgG1-5T4-207-FEAR
Report the figure in nm without appending any unit label.

IgG1-5T4-226-FEAR (antibody, V domains shown, Monospecific, bivalent human IgG1 kappa with L234F, L235E, D265A, K409R (FEAR); also called IgG1-5T4-226-FEAR-FITC) VH: QVQLQQWGAGLLKPSETLSLTCAVYGGSFSGYYWSWIRQPPGKGLEWIGEIDHSGSTNYNPSLKSRVTISVDTSKNQFSLKLSSVTAADTAVYYCAAWFGELWDYYYGMDVWGQGTTVTVSS VL: EIVLTQSPATLSLSPGERATLSCRASQSVSSFLAWYQQKPGQAPRLLIYDASNRATGIPARFSGSGSGTDFTLTISSLEPEDFAVYYCQQRSNWPLTFGQGTRLEIK; -0.02

Proceed to the following item.
What does the data say about its corrected association response? Entry: IgG1-5T4-085-FEAR (antibody, V domains shown, Monospecific, bivalent human IgG1 kappa with L234F, L235E, D265A, K409R (FEAR)) VH: EVQLLESGGGLVQPGGSLRLSCAASGFTFSSYAMSWVRQAPGKGLEWVSAISGSGGSTYNADSVKGRFTIFRDNSKNTLYLHMNSLRAEDTAVYYCARDPGYNNVEYLDHWGQGTLVTVSS VL: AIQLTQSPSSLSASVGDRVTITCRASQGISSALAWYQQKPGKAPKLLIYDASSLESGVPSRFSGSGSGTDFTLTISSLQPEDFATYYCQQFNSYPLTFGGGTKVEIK
1.03
